Here the recorded OD490 is given for each entry.
# target_of_assay: T1, M5
# T1 construct: also called PD1 mutant M5
# assay_text: scFv-phage ELISA
Provide a numeric answer; units are not to be included.

PD1-42G4 (antibody, V domains shown, scFv-phage in the screening ELISA; later whole IgG) VH: QVQLVESGGGLVKPGGSLRLSCAASGFTFSDYYMSWIRQAPGKGLEWVSDISASGNSIYYADSVKRRFTISRDNSKNSLYLQMNSLRAEDTAVYYCVTSGPFGEFRNWGLGTLVTVSS VL: DIQMTQSPSSLSASVGDRVTTTCRASQGISSYLAWYQQKPGKAPKLLIYAASTLQSGVPSRFSGSGSGTDFTLTISSLQPEDFATYFCQQSYTSPRTFGQGTKLDIK = 1.6

Turning now to a further binder:
# OD490 (binder: PD1-52E8 (antibody, V domains shown, scFv-phage in the screening ELISA; whole IgG in the other assays) VH: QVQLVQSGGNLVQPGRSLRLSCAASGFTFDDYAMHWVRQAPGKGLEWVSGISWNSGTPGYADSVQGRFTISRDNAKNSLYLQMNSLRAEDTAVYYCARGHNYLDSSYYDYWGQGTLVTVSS VL: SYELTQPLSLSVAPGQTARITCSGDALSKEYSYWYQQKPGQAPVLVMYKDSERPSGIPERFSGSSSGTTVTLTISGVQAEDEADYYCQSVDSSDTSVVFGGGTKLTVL ) is 0.5

Sourced from patent US20190248900A1
